Provenance of the data: patent US20250163127A1

# systemName: CTLA4 (human)
# Sequence (chain, as listed by the source): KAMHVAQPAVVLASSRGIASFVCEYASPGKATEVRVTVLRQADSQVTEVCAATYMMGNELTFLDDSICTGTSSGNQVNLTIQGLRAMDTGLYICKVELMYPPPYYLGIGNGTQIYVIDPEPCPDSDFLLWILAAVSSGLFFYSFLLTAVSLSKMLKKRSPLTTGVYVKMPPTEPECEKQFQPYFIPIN
# procedureDetails: flow cytometry, CHO cells stably expressing CTLA4

binder | MFI at 33.3 nM (MFI)
CD80 variant Q33L/E35D/M47I/L85Q IgV-Fc (Fc fusion) VIHVTKEVKEVATLSCGHNVSVEELAQTRIYWLKDKKMVLTMMSGDINIWPEYKNRTIFDITNNLSIVILALRPSDEGTYECVVQKYEKDAFKREHLAEVT | 20500
CD80 variant Q33L/E35D/N48K/L85Q/L97Q IgV-Fc (Fc fusion) VIHVTKEVKEVATLSCGHNVSVEELAQTRIYWLKDKKMVLTMMSGDMKIWPEYKNRTIFDITNNLSIVILALRPSDEGTYECVVQKYEKDAFKREHQAEVT | 1180
